Cited source: patent EP0785211A1

molecular target: human T47-D cell progesterone receptor (Homo sapiens); construct: Human PR are readily available in high amounts from the T47-D cell line in culture; endogenous in cells; host or cells: T47-D human breast cancer cell line; assay: Relative binding affinity to human T47-D cell progesterone receptor (competition against [3H]-ORG 2058); conditions: against 2 nM [3H]-ORG 2058, 3 hours at 4°C; mean ± s.e.m.; read-out: IC50
Sequence (P06401 whole entry): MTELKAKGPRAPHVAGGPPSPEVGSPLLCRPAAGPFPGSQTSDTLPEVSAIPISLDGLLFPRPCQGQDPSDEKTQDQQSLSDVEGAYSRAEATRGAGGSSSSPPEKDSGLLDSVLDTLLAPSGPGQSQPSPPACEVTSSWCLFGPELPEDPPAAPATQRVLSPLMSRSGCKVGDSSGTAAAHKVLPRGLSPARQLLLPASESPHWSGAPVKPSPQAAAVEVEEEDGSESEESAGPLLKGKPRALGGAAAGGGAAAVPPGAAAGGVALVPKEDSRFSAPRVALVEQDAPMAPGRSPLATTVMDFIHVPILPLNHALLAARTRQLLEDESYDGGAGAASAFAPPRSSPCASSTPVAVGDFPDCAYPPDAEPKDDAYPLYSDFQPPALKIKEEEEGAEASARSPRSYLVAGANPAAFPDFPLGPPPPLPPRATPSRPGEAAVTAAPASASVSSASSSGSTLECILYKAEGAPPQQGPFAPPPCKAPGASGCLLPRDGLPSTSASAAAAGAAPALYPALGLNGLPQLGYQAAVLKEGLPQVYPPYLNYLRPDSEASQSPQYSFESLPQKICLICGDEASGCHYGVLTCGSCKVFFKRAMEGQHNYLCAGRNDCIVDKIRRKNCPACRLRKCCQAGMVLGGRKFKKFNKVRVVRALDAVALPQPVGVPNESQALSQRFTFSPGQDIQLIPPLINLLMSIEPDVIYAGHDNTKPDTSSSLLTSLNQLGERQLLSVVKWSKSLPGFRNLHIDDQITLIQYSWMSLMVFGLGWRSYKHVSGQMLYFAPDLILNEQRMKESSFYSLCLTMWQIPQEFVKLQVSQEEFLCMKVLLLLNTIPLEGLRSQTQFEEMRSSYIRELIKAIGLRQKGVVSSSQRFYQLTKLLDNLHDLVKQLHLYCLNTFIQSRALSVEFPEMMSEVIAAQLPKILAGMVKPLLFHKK
Value type: IC50 (µM)
Respond with the bare value in µM.

Q: Query for human T47-D cell progesterone receptor (Homo sapiens): what IC50 does the record show for CC(=O)O[C@]1(C(C)=O)CC[C@H]2[C@@H]3C=C(C)C4=CC(=O)CC[C@@H]4[C@H]3CC[C@@]21C [Nomegestrol acetate, reference compound] ?
Result: 0.0164
